Counter-ions that a name gives are not always drawn.
endpoint: melting point

In [3]: df
Out[3]:
                                   molecule  value_observed
0  NC(=S)N/N=C/c1ccc(OS(=O)(=O)c2ccc([N+](=O)[O-])cc2)cc1 (as salt: benzenesulfonate)   226 to 228 °C
1  NC(=S)N/N=C/c1ccc(OS(=O)(=O)c2ccc(Cl)cc2)cc1 (as salt: benzenesulfonate)   194 to 196 °C
2  NC(=S)N/N=C/c1ccc(OS(=O)(=O)c2ccccc2)cc1 (as salt: benzenesulfonate)   159 to 160 °C
3         CS(=O)(=O)Oc1ccc(/C=N/NC(N)=S)cc1   224 to 226 °C
4  Cc1ccc(S(=O)(=O)Oc2ccc(/C=N/NC(N)=S)cc2)cc1   195 to 197 °C
5  COc1ccc(S(=O)(=O)Oc2ccc(/C=N/NC(N)=S)cc2)cc1   154 to 156 °C
